Test system: Mtb H37Rv
run-description: Secondary assay: MIC, IC50 and IC90 repeated at lower starting concentrations
Format: cell-based
condition-description: Mycobacterium tuberculosis
measurement-kind: IC90 (µM)
Your answer should be a plain number; it is taken to be in µM.

Study these solved cases before continuing.
• O=C(C[n+]1ccn(Cc2cccc(Cn3cc[n+](CC(=O)c4ccc([N+](=O)[O-])cc4)c3)n2)c1)c1ccc([N+](=O)[O-])cc1.[Br-].[Br-] [Compound 4f] = 140
• CO[C@H]1/C=C/O[C@@]2(C)Oc3c(C)c(O)c4c(O)c(c(/C=N/N5CCN(C)CC5)c(O)c4c3C2=O)NC(=O)/C(C)=C\C=C\[C@H](C)[C@H](O)[C@@H](C)[C@@H](O)[C@@H](C)[C@H](OC(C)=O)[C@@H]1C [Rifampicin, reference compound] = 0.0077

Entry O=C(C[n+]1cn(Cc2cccc(Cn3c[n+](CC(=O)c4ccccc4)c4ccccc43)n2)c2ccccc21)c1ccccc1.[Br-].[Br-] [Compound 6c] : IC90 on Mtb H37Rv = 110

Form field IC90 for item O=[N+]([O-])c1cn(Cc2cccc(Cn3cnc([N+](=O)[O-])c3)n2)cn1 [Compound 2b] on Mtb H37Rv: 100

Assay Mtb H37Rv, sample O=C(C[n+]1cn(Cc2cccc(Cn3c[n+](CC(=O)c4ccc([N+](=O)[O-])cc4)c4ccccc43)n2)c2ccccc21)c1ccc([N+](=O)[O-])cc1.[Br-].[Br-] [Compound 6f] , IC90 read: 20

* * *

run-description: In vitro microsomal stability assay
condition-description: human, microsomes, NADPH-dependent T1/2, Human
measurement-kind: half-life at 1 μM (h)
Return type: number; implicit unit h.

In plain terms, O=C(C[n+]1cn(Cc2cccc(Cn3c[n+](CC(=O)c4ccc([N+](=O)[O-])cc4)c4ccccc43)n2)c2ccccc21)c1ccc([N+](=O)[O-])cc1.[Br-].[Br-] [Compound 6f] has a documented half-life at 1 μM of 1.77

* * *

run-description: in vitro
condition-description: human
pIC50: −log10 of the molar value.
measurement-kind: pIC50

Here's what some known entries look like.
• O=C(C[n+]1ccn(Cc2cccc(Cn3cc[n+](CC(=O)c4ccc([N+](=O)[O-])cc4)c3)n2)c1)c1ccc([N+](=O)[O-])cc1.[Br-].[Br-] = < 4.30
• O=C(C[n+]1cn(Cc2cccc(Cn3c[n+](CC(=O)c4ccccc4)c4ccccc43)n2)c2ccccc21)c1ccccc1.[Br-].[Br-] = < 4.30
• c1cc(Cn2cnc3ccccc32)nc(Cn2cnc3ccccc32)c1 = < 4.30
• O=C(C[n+]1cn(Cc2cccc(Cn3c[n+](CC(=O)c4ccc([N+](=O)[O-])cc4)c4ccccc43)n2)c2ccccc21)c1ccc([N+](=O)[O-])cc1.[Br-].[Br-] = < 4.30
• O=[N+]([O-])c1cn(Cc2cccc(Cn3cnc([N+](=O)[O-])c3)n2)cn1 = < 4.30

Moving on to the next molecule.
Value of measured pIC50 for the entry CN[C@@H]1C[C@H]2O[C@@](C)([C@@H]1OC)n1c3ccccc3c3c4c(c5c6ccccc6n2c5c31)C(=O)NC4 [Staurosporine, reference compound] : 7.74

* * *

target-desc: CYP3A4 (Homo sapiens, UniProt P08684)
Sequence (P08684 whole entry): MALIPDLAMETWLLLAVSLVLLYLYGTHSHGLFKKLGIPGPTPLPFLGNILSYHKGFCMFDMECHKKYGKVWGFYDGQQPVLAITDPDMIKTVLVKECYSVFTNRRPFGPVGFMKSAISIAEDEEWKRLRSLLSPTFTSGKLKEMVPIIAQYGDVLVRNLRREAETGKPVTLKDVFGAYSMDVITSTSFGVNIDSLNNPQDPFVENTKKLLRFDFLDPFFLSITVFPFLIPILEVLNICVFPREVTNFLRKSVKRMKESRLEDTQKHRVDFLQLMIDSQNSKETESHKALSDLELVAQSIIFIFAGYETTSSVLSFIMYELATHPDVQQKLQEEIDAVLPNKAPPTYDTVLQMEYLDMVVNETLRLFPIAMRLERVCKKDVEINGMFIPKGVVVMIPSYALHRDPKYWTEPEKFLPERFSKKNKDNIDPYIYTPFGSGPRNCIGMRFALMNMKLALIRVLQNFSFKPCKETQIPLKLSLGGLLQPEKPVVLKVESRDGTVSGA
run-description: Cytochrome P450 inhibition
Format: in vitro ADME
measurement-kind: pIC50
Scale note: pIC50 = -log10(concentration in M).

The value of pIC50 recorded for O=C(C[n+]1cn(Cc2cccc(Cn3c[n+](CC(=O)c4ccc([N+](=O)[O-])cc4)c4ccccc43)n2)c2ccccc21)c1ccc([N+](=O)[O-])cc1.[Br-].[Br-] when tested on CYP3A4 (Homo sapiens, UniProt P08684) reads 5.18
